System: IL-13 induced STAT6 phosphorylation in BEAS-2B human lung epithelial cells
Assay: Cellular JAKI potency assay (BEAS-2B)
Type: cell-based
Settings: Homo sapiens, BEAS-2B, BEAS-2B cells, read-out: BEAS2B pIC50 (converted)
experimental_endpoint: IC50

Exercise: Reported IC50, molecule `CCc1cc(O)ccc1-c1ccc2c(-c3nc(C4=CCN(CCC(C)(C)O)CC4)c[nH]3)n[nH]c2c1F` : ____
Key: 10 to 31.6 nM

Exercise: Reported IC50, molecule `CCc1cc(O)ccc1-c1ccc2c(-c3nc(C4=CCN(CC(=O)NC(C)(C)C)CC4)c[nH]3)n[nH]c2c1` : ____
Key: 10 to 31.6 nM

Exercise: Reported IC50, molecule `CCc1cc(O)ccc1-c1ccc2c(-c3nc(C4=CCN(CCN5CCOCC5)CC4)c[nH]3)n[nH]c2c1F` : ____
Key: 10 to 31.6 nM

Exercise: Reported IC50, molecule `CCc1cc(O)ccc1-c1ccc2c(-c3nc(C4=CCN(C(=O)[C@@H]5CCCN5)CC4)c[nH]3)n[nH]c2c1F` : ____
Key: 31.6 to 100 nM

Exercise: Reported IC50, molecule CCc1cc(O)ccc1-c1ccc2c(-c3nc(C4=CCN(C(C)C5CC(O)C5)CC4)c[nH]3)n[nH]c2c1F (stereo not shown) : ____
Key: 3.16 to 10 nM

Exercise: Reported IC50, molecule CCc1cc(O)ccc1-c1ccc2c(-c3nc(C4=CCNCC4C)c[nH]3)n[nH]c2c1F (stereo not shown) : ____
Key: 10 to 31.6 nM

Exercise: Reported IC50, molecule `CCc1cc(O)ccc1-c1ccc2c(-c3nc(C4=CCN(C[C@@H]5COCCN5C(=O)OC(C)(C)C)CC4)c[nH]3)n[nH]c2c1` : ____
Key: 31.6 to 100 nM

* * *

Molecular target: UniProtKB P23458
Sequence (P23458 whole entry): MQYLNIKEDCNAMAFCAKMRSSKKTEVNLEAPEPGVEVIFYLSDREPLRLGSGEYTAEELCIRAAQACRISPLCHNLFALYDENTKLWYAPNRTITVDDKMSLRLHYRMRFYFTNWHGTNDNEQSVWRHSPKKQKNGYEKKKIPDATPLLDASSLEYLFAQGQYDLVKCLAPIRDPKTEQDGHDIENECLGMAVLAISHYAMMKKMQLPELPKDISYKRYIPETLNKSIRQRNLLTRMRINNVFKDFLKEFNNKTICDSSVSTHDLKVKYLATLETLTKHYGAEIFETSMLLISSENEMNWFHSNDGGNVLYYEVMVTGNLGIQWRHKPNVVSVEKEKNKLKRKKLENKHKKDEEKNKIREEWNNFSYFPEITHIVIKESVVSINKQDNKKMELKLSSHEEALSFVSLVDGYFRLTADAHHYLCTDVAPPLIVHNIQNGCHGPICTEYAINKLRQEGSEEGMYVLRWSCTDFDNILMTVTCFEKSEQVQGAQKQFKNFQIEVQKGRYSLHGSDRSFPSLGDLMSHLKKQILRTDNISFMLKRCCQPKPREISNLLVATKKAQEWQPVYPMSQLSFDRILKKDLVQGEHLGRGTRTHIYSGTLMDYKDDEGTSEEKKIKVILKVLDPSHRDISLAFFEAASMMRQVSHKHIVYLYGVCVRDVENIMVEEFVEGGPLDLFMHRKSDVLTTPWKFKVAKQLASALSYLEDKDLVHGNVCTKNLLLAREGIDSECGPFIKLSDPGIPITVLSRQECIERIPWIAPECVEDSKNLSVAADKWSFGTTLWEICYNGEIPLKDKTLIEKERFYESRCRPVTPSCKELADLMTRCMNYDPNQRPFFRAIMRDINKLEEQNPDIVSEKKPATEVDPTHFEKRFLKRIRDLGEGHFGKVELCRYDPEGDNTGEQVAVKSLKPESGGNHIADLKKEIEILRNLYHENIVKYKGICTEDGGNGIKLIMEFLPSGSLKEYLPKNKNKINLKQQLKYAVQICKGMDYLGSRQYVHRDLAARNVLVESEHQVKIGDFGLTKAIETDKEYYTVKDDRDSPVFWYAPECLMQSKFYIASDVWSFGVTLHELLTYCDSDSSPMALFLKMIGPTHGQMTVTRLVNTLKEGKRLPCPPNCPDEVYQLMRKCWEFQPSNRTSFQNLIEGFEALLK
Test: Biochemical JAK kinase assay (LanthaScreen), JAK1
Conditions: read-out: JAK1 pKi (converted)
Protocol: A panel of four LanthaScreen JAK biochemical assays (JAK1, 2, 3 and Tyk2) were carried in a common kinase reaction buffer (50 mM HEPES, pH 7.5, 0.01% Brij-35, 10 mM MgCl2, and 1 mM EGTA). […] Serially diluted compounds were pre-incubated with each of the four JAK enzymes and the substrate in white 384-well microplates (Corning) at ambient temperature for 1 h. […] The plates were allowed to incubate at ambient temperature for 1 h before being read on the EnVision reader (Perkin Elmer). […]
experimental_endpoint: Ki

Exercise: Value wanted: Ki (UniProtKB P23458) of entry `CCc1cc(O)ccc1-c1ccc2c(-c3nc(C4=CCN(C(=O)CNC)C4)c[nH]3)n[nH]c2c1F`
Key: 0.1 to 1 nM

Exercise: Value wanted: Ki (UniProtKB P23458) of entry `CCc1cc(O)ccc1-c1ccc2c(-c3nc(C4=CCN(C(=O)OC)CC4)c[nH]3)n[nH]c2c1F`
Key: 1 to 10 nM

Exercise: Value wanted: Ki (UniProtKB P23458) of entry `CCc1cc(O)ccc1-c1ccc2c(-c3nc(C4=CC[C@H](C)N(CCN5CCCC5=O)C4)c[nH]3)n[nH]c2c1F`
Key: 0.1 to 1 nM

Exercise: Value wanted: Ki (UniProtKB P23458) of entry CCc1cc(O)ccc1-c1ccc2c(-c3nc(C4=CCN(CC5CNC(=O)O5)CC4)c[nH]3)n[nH]c2c1F (stereo not drawn)
Key: 0.1 to 1 nM

Exercise: Value wanted: Ki (UniProtKB P23458) of entry CCc1cc(O)ccc1-c1ccc2c(-c3nc(C4=CCCN(C(C)C5CC(O)C5)C4)c[nH]3)n[nH]c2c1F (stereo not drawn)
Key: 0.1 to 1 nM

Exercise: Value wanted: Ki (UniProtKB P23458) of entry `CCc1cc(O)ccc1-c1ccc2c(-c3nc(C4=CCN(CC)CC4)c[nH]3)n[nH]c2c1F`
Key: 0.1 to 1 nM

Exercise: Value wanted: Ki (UniProtKB P23458) of entry `CCc1cc(O)ccc1-c1ccc2c(-c3nc(C4=CC[C@@H](C)NC4)c[nH]3)n[nH]c2c1`
Key: 0.1 to 1 nM

Exercise: Value wanted: Ki (UniProtKB P23458) of entry `CCc1cc(O)ccc1-c1ccc2c(-c3nc(C4=CCN(C(=O)[C@@H](N)C(C)(C)O)CC4)c[nH]3)n[nH]c2c1F`
Key: 1 to 10 nM

Exercise: Value wanted: Ki (UniProtKB P23458) of entry `CCc1cc(O)ccc1-c1ccc2c(-c3nc(C4=CCN(CCc5ccccc5)CC4)c[nH]3)n[nH]c2c1F`
Key: 1 to 10 nM

Exercise: Value wanted: Ki (UniProtKB P23458) of entry `CCc1cc(O)ccc1-c1ccc2c(-c3nc(C4=CCN[C@H](C)C4)c[nH]3)n[nH]c2c1F`
Key: 0.1 to 1 nM

Exercise: Value wanted: Ki (UniProtKB P23458) of entry `CCc1cc(O)ccc1-c1ccc2c(-c3nc(C4=CCCN(C[C@@H]5COCCN5)C4)c[nH]3)n[nH]c2c1F`
Key: 1 to 10 nM

Exercise: Value wanted: Ki (UniProtKB P23458) of entry `CCc1cc(O)ccc1-c1ccc2c(-c3nc(C4=C[C@H](CO)N(Cc5cnoc5)C4)c[nH]3)n[nH]c2c1F`
Key: 0.1 to 1 nM

Exercise: Value wanted: Ki (UniProtKB P23458) of entry `CCc1cc(O)ccc1-c1ccc2c(-c3nc(C4=CCN(C5COC5)C4)c[nH]3)n[nH]c2c1F`
Key: 0.1 to 1 nM

Exercise: Value wanted: Ki (UniProtKB P23458) of entry `CCc1cc(O)ccc1-c1ccc2c(-c3nc(C4=CCN(C(C)C)CC4)c[nH]3)n[nH]c2c1F`
Key: 0.1 to 1 nM

Exercise: Value wanted: Ki (UniProtKB P23458) of entry CCc1cc(O)ccc1-c1ccc2c(-c3nc(C4=CC5COCC(C4)N5)c[nH]3)n[nH]c2c1F (stereo not drawn)
Key: 0.1 to 1 nM

* * *

System: IL-13 induced STAT6 phosphorylation in BEAS-2B human lung epithelial cells
Test: Cellular JAKI potency assay (BEAS-2B)
Format: cell-based
Conditions: Homo sapiens, BEAS-2B, BEAS-2B cells, read-out: BEAS2B pIC50 (converted)
Give IC50 for every item shown.

Exercise: Reported IC50, compound CCc1cc(O)ccc1-c1ccc2c(-c3nc(C4=CCCNC4C)c[nH]3)n[nH]c2c1 (stereo not shown) [Example 233] : ____
Key: 10 to 31.6 nM

Exercise: Reported IC50, compound CCc1cc(O)ccc1-c1ccc2c(-c3nc(C4=CCN(C(=O)NC)CC4)c[nH]3)n[nH]c2c1 [Example 150] : ____
Key: 10 to 31.6 nM

Exercise: Reported IC50, compound CCc1cc(O)ccc1-c1ccc2c(-c3nc(C4=CCN(C(C)C)C4)c[nH]3)n[nH]c2c1F [Example 32] : ____
Key: 3.16 to 10 nM

Exercise: Reported IC50, compound CCc1cc(O)ccc1-c1ccc2c(-c3nc(C4=CCN(CCC5(O)CC5)C4)c[nH]3)n[nH]c2c1F [Example 320] : ____
Key: 10 to 31.6 nM

Exercise: Reported IC50, compound CCc1cc(O)ccc1-c1ccc2c(-c3nc(C4=CCN(CCNC)C4)c[nH]3)n[nH]c2c1F [Example 204] : ____
Key: 31.6 to 100 nM

Exercise: Reported IC50, compound CCc1cc(O)ccc1-c1ccc2c(-c3nc(C4=CCN(C(C)C)CC4)c[nH]3)n[nH]c2c1F [Example 22] : ____
Key: 3.16 to 10 nM

Exercise: Reported IC50, compound CCc1cc(O)ccc1-c1ccc2c(-c3nc(C4=CCCN(C5CCCN(C)C5)C4)c[nH]3)n[nH]c2c1F (stereo not shown) [Example 217] : ____
Key: 31.6 to 100 nM

* * *

Tested on: IL-13 induced STAT6 phosphorylation in BEAS-2B human lung epithelial cells
Assay: Cellular JAKI potency assay (BEAS-2B)
Assay type: cell-based
Conditions: Homo sapiens, BEAS-2B, BEAS-2B cells, read-out: BEAS2B pIC50 (converted)
experimental_endpoint: IC50

Exercise: Reported IC50, compound `CCc1cc(O)ccc1-c1ccc2c(-c3nc(C4=CC[C@H](C)N(CCN5CCOCC5)C4)c[nH]3)n[nH]c2c1F` : ____
Key: 0.01 to 0.0316 µM

Exercise: Reported IC50, compound `CCc1cc(O)ccc1-c1ccc2c(-c3nc(C4=C(C(=O)OC)CNCC4)c[nH]3)n[nH]c2c1F` : ____
Key: 0.00316 to 0.01 µM

Exercise: Reported IC50, compound CCc1cc(O)ccc1-c1ccc2c(-c3nc(C4=CCN(C5CC(O)C5)C4)c[nH]3)n[nH]c2c1 (stereo not shown) : ____
Key: 0.00316 to 0.01 µM

Exercise: Reported IC50, compound `CCc1cc(O)ccc1-c1ccc2c(-c3nc(C4=CC(C)(C)NC(C)(C)C4)c[nH]3)n[nH]c2c1` : ____
Key: 0.01 to 0.0316 µM

Exercise: Reported IC50, compound `CCc1cc(O)ccc1-c1ccc2c(-c3nc(C4=CC[C@H](C)N(CCC(C)(C)O)C4)c[nH]3)n[nH]c2c1F` : ____
Key: 0.01 to 0.0316 µM

Exercise: Reported IC50, compound `CCc1cc(O)ccc1-c1ccc2c(-c3nc(C4=CCN(CCNS(C)(=O)=O)CC4)c[nH]3)n[nH]c2c1` : ____
Key: 0.01 to 0.0316 µM

Exercise: Reported IC50, compound `CCc1cc(O)ccc1-c1ccc2c(-c3nc(C4=CCN(CC(=O)NC)CC4)c[nH]3)n[nH]c2c1` : ____
Key: 0.01 to 0.0316 µM

Values compiled from patent US20240092758A1.
